Assay: Caco-2 cell permeability
Settings: human
T means recorded Papp A→B is 0.6 ×10⁻⁶ cm/s or above; F means it is below 0.6 ×10⁻⁶ cm/s.

{"columns": ["COMPOUND", "ASSIGNED LABEL"],
 "data": [
  ["Cc1ncccc1-c1ccc2nccc(C(=O)NCC(=O)N3CSC[C@H]3C#N)c2c1 [Example 128]", "F"]
]}

Is Papp A→B at least 0.6 ×10⁻⁶ cm/s? Consider CS(=O)(=O)C[C@@H]1CN(c2ccc3nccc(C(=O)NCC(=O)N4CSC[C@H]4C#N)c3c2)CCO1 [Example 94]
F

Does CC1(CS(C)(=O)=O)CN(c2ccc3nccc(C(=O)NCC(=O)N4CSC[C@H]4C#N)c3c2)C1 [Example 188] have a reported Papp A→B of at least 0.6 ×10⁻⁶ cm/s?
F

For this compound, is measured Papp A→B 0.6 ×10⁻⁶ cm/s or higher? N#C[C@@H]1CSCN1C(=O)CNC(=O)c1ccnc2ccc(N3C[C@H]4C[C@@H]3CO4)cc12 [Example 76]
T

Entry CO[C@@H]1CN(c2ccc3nccc(C(=O)NCC(=O)N4CSC[C@H]4C#N)c3c2)[C@H]1C [Example 30] : is its Papp A→B no less than 0.6 ×10⁻⁶ cm/s?
T

Evaluate CO[C@H]1CCN(c2ccc3nccc(C(=O)NCC(=O)N4CSC[C@H]4C#N)c3c2)C1 [Example 207] : Papp A→B at minimum 0.6 ×10⁻⁶ cm/s?
T

Can COCC1(C)CN(c2ccc3nccc(C(=O)NCC(=O)N4CSC[C@H]4C#N)c3c2)C1 [Example 29] be said to have Papp A→B at or above 0.6 ×10⁻⁶ cm/s?
T

Could you verify whether the entry N#C[C@@H]1CSCN1C(=O)CNC(=O)c1ccnc2ccc(N3C[C@@H](F)[C@@H](F)C3)cc12 [Example 50] shows Papp A→B of no less than 0.6 ×10⁻⁶ cm/s?
T

State whether the measured Papp A→B reaches 0.6 ×10⁻⁶ cm/s, counting equality as reaching it, for Cn1nccc1-c1ccc2nccc(C(=O)NCC(=O)N3CSC[C@H]3C#N)c2c1 [Example 174]
F

Test whether the compound C[C@]1(F)CCN(c2ccc3nccc(C(=O)NCC(=O)N4CSC[C@H]4C#N)c3c2)C1 (mixture of isomers) [Example 198] records Papp A→B of 0.6 ×10⁻⁶ cm/s or higher.
T

In plain terms: is recorded Papp A→B at least 0.6 ×10⁻⁶ cm/s for COC[C@@H]1CN(c2ccc3nccc(C(=O)NCC(=O)N4CSC[C@H]4C#N)c3c2)CCO1 [Example 93] ?
F

Given CC1(C)CCCN(c2ccc3nccc(C(=O)NCC(=O)N4CSC[C@H]4C#N)c3c2)C1=O [Example 15] , state whether its Papp A→B is at least 0.6 ×10⁻⁶ cm/s.
F

// inclusive: Papp A→B at least 0.6 ×10⁻⁶ cm/s? input: N#C[C@@H]1CSCN1C(=O)CNC(=O)c1ccnc2ccc(N3CC(F)(CF)C3)cc12 [Example 157]
T

Textbook exercise: given the entry N#C[C@@H]1CSCN1C(=O)CNC(=O)c1ccnc2ccc(N3C[C@@H]4C[C@H]3CO4)cc12 [Example 75] , state whether its Papp A→B is greater than or equal to 0.6 ×10⁻⁶ cm/s.
T

Decide: Papp A→B of CC1(C(F)F)CN(c2ccc3nccc(C(=O)NCC(=O)N4CSC[C@H]4C#N)c3c2)C1 [Example 135] >= 0.6 ×10⁻⁶ cm/s?
T

Reported Papp A→B at or above 0.6 ×10⁻⁶ cm/s? CC1(O)CCN(c2ccc3nccc(C(=O)NCC(=O)N4CSC[C@H]4C#N)c3c2)CC1 [Example 190]
F

###

Assay: Caco-2 cell permeability
Settings: human
MEASUREMENT NAME: efflux ratio
One number for each entry.

Past entries and their recorded results:
{"columns": ["LINE NOTATION", "efflux ratio"],
 "data": [
  ["N#C[C@@H]1CSCN1C(=O)CNC(=O)c1ccnc2ccc(N3CC(C(F)F)C3)cc12", 12],
  ["CCC1(O)CN(c2ccc3nccc(C(=O)NCC(=O)N4CSC[C@H]4C#N)c3c2)C1", 37],
  ["N#C[C@@H]1CSCN1C(=O)CNC(=O)c1ccnc2ccc(N3CC(CF)C3)cc12", 12],
  ["N#C[C@@H]1CSCN1C(=O)CNC(=O)c1ccnc2ccc(N3CCCCO3)cc12", 6.1],
  ["N#C[C@@H]1CSCN1C(=O)CNC(=O)c1ccnc2ccc(N3CC4(CC(F)C4)C3)cc12", 6.5],
  ["N#C[C@@H]1CSCN1C(=O)CNC(=O)c1ccnc2ccc(N3CCO[C@H](C(F)(F)F)C3)cc12", 29]
]}

Dear colleague, could you please provide efflux ratio for the compounds listed below?
1. N#C[C@@H]1CSCN1C(=O)CNC(=O)c1ccnc2ccc(N3C[C@@H](F)[C@@H](F)C3)cc12
2. Cc1nc(C)c(-c2ccc3nccc(C(=O)NCC(=O)N4CSC[C@H]4C#N)c3c2)o1

32
59

###

Target: FAP (Mus musculus (Mouse))
Sequence (P97321 24-761): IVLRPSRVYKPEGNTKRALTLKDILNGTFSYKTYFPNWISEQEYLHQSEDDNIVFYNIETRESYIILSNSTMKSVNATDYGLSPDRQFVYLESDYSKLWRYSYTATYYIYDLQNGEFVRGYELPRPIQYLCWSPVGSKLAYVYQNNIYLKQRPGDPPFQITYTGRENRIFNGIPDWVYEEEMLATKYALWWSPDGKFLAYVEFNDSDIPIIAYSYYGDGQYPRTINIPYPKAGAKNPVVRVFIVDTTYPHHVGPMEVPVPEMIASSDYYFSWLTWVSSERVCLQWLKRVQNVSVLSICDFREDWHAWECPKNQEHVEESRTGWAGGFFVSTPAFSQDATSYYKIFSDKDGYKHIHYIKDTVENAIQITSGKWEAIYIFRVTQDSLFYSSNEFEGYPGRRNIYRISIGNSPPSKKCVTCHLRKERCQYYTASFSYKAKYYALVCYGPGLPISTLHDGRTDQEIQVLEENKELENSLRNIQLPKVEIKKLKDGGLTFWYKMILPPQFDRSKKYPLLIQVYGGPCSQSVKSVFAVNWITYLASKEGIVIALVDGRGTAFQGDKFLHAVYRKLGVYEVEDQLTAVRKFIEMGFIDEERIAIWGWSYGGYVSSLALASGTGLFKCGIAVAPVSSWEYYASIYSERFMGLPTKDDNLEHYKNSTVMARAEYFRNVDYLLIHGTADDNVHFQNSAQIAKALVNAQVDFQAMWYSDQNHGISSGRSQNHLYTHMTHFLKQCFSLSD
Experiment: FAP plasma inhibition assay, mouse plasma
Conditions: mouse plasma diluted 1:67, Ala-Pro-AMC 75 μM
Kindly state pIC50 for each of the entries shown.
Numbers only, as −log10 of the molar value.

Below: 6 molecules and their reported pIC50.
{"columns": ["MOLECULE", "TARGET", "pIC50"],
 "data": [
  ["CC(F)(F)C1CN(c2ccc3nccc(C(=O)NCC(=O)N4CSC[C@H]4C#N)c3c2)C1 [Example 147]", "FAP (Mus musculus (Mouse))", 9.70],
  ["CC1(CF)CN(c2ccc3nccc(C(=O)NCC(=O)N4CSC[C@H]4C#N)c3c2)C1 [Example 27]", "FAP (Mus musculus (Mouse))", 9.30],
  ["COC1(C)CN(c2ccc3nccc(C(=O)NCC(=O)N4CSC[C@H]4C#N)c3c2)C1 [Example 151]", "FAP (Mus musculus (Mouse))", 9.40],
  ["N#C[C@@H]1CSCN1C(=O)CNC(=O)c1ccnc2ccc(N3C4CCC3COC4)cc12 [Example 98]", "FAP (Mus musculus (Mouse))", 9.40],
  ["N#C[C@@H]1CSCN1C(=O)CNC(=O)c1ccnc2ccc(N3CC4(COC4)C3)cc12 [Example 166]", "FAP (Mus musculus (Mouse))", 9.22],
  ["N#C[C@@H]1CSCN1C(=O)CNC(=O)c1ccnc2ccc(N3C[C@@H](F)[C@@H](F)C3)cc12 [Example 50]", "FAP (Mus musculus (Mouse))", 9.30]
]}

Give measured pIC50 for every item shown.
1. N#C[C@@H]1CSCN1C(=O)CNC(=O)c1ccnc2ccc(-c3ccn[nH]3)cc12 [Example 196]
2. CC(=O)N1CC2(C1)CN(c1ccc3nccc(C(=O)NCC(=O)N4CSC[C@H]4C#N)c3c1)C2 [Example 184]
3. N#C[C@@H]1CSCN1C(=O)CNC(=O)c1ccnc2ccc(N3CC(C(F)F)C3)cc12 [Example 28]
4. N#C[C@@H]1CSCN1C(=O)CNC(=O)c1ccnc2ccc(N3CCC(F)CC3)cc12 [Example 205]
5. CC1(C)CN(c2ccc3nccc(C(=O)NCC(=O)N4CSC[C@H]4C#N)c3c2)CCO1 [Example 88]
6. C[C@@H]1CN(c2ccc3nccc(C(=O)NCC(=O)N4CSC[C@H]4C#N)c3c2)C[C@H](C)O1 [Example 68]
7. N#C[C@@H]1CSCN1C(=O)CNC(=O)c1ccnc2ccc(N3CC(CF)C3)cc12 [Example 113]

9.70
9.22
9.30
9.52
9.52
9.30
9.30

###

Experiment: Caco-2 cell permeability
Conditions: human
MEASUREMENT NAME: efflux ratio
Give bare numbers.

{"columns": ["COMPOUND", "efflux ratio"],
 "data": [
  ["COC[C@@H]1CN(c2ccc3nccc(C(=O)NCC(=O)N4CSC[C@H]4C#N)c3c2)CCO1 [Example 93]", 50],
  ["CC1(CS(C)(=O)=O)CN(c2ccc3nccc(C(=O)NCC(=O)N4CSC[C@H]4C#N)c3c2)C1 [Example 188]", 21],
  ["COC[C@@H]1[C@@H](C)OCCN1c1ccc2nccc(C(=O)NCC(=O)N3CSC[C@H]3C#N)c2c1 [Example 97]", 45]
]}

# map each compound to its efflux ratio
1. CC1(C)OCCN(c2ccc3nccc(C(=O)NCC(=O)N4CSC[C@H]4C#N)c3c2)C1=O [Example 16]
2. C[C@@H]1CCCN(c2ccc3nccc(C(=O)NCC(=O)N4CSC[C@H]4C#N)c3c2)C1=O (single isomer, unassigned) [Example 204]
3. N#C[C@@H]1CSCN1C(=O)CNC(=O)c1ccnc2ccc(-c3ccnc(F)c3)cc12 [Example 124]

[26, 19, 59]

###

Prolyl endopeptidase, Prolyl Oligopeptidase (hPREP) (Homo sapiens (Human)): reported pIC50 for various compounds.
Sequence (P48147 whole entry): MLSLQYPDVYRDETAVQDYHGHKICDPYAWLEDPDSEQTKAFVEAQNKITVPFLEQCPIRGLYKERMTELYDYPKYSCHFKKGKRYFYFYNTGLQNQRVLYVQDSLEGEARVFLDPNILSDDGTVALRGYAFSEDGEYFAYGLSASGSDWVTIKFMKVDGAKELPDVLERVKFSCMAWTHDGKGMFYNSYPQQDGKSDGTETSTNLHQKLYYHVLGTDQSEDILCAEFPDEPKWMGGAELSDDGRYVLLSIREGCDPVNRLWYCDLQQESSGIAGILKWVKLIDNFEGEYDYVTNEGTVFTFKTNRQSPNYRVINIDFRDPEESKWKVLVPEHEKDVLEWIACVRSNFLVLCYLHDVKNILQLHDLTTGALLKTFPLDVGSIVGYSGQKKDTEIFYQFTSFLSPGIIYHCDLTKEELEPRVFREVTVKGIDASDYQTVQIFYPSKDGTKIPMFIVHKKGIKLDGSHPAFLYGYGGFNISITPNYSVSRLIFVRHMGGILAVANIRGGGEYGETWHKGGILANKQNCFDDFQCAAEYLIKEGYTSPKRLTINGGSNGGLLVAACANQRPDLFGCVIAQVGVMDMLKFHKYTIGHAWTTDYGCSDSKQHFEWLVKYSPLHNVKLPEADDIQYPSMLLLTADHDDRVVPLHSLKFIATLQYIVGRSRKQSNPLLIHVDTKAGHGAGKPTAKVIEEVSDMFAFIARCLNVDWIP
Numbers only, as −log10 of the molar value.

Some solved cases for reference:
{"columns": ["COMPOUND", "TARGET", "pIC50"],
 "data": [
  ["CC(=O)NCC1(C)CN(c2ccc3nccc(C(=O)NCC(=O)N4CSC[C@H]4C#N)c3c2)C1", "Prolyl endopeptidase, Prolyl Oligopeptidase (hPREP) (Homo sapiens (Human))", 5.80],
  ["C[C@H]1CCCN(c2ccc3nccc(C(=O)NCC(=O)N4CSC[C@H]4C#N)c3c2)C1=O (single isomer, unassigned)", "Prolyl endopeptidase, Prolyl Oligopeptidase (hPREP) (Homo sapiens (Human))", 5.46]
]}

Please go through the list and note pIC50 for each compound.
1. N#C[C@@H]1CSCN1C(=O)CNC(=O)c1ccnc2ccc(N3CC(C4CC4)C3)cc12
2. C[C@@H]1COCCN1c1ccc2nccc(C(=O)NCC(=O)N3CSC[C@H]3C#N)c2c1
3. N#C[C@@H]1CSCN1C(=O)CNC(=O)c1ccnc2ccc(N3CC(N4CCOCC4)C3)cc12
4. N#C[C@@H]1CSCN1C(=O)CNC(=O)c1ccnc2ccc(N3C[C@H]4CCC[C@@H](C3)O4)cc12
5. N#C[C@@H]1CSCN1C(=O)CNC(=O)c1c(F)cnc2ccc(N3CCOCC3)cc12

1. 6.60
2. 6.00
3. 6.08
4. 6.34
5. 5.77
